The measurements presented in this section are drawn from paper PMC10227015.

# Tested on: dCK-C3S-S74E
# Sequence (P27707 whole entry S74E, form open): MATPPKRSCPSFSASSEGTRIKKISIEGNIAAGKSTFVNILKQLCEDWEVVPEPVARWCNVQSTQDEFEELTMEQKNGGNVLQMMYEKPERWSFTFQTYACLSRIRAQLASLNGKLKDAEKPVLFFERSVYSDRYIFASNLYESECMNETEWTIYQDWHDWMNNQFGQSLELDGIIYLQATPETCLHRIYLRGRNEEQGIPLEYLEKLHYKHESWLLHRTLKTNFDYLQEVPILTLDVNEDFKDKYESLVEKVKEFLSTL
# testProtocol: Enzymatic assay (PK/LDH coupled), dC phosphorylation by dCK in the presence of ATP
# Format: biochemical, human
# conditionsUsed: 40 µM
# Description: For enzymatic assays, cells were re-suspended in 20 mM TRIS, pH 8 500 mM NaCl, 0.1% BRIJ-35 and 5% glycerol buffer and one EDTA free anti-protease tablet was added (Roche). […] Kinetic analyses were performed using a spectrophotometric continuous enzymatic-coupled assay using pyruvate kinase (PK) and lactate dehydrogenase (LDH). […] All measurements were performed on a microplate reader Pherastar FS (BMG Labtech). […]
measuredParameter: Enzymatic activity (ATP) Mean (% activity) (%)

Cc1ccc(NC(=O)c2ccc(CN3CCN(C)CC3)cc2)cc1Nc1nc(-c2nc(N)cc(N)n2)cs1
5.2
Cc1ccc(-c2ccc(CN3CCN(C)CC3)cc2)cc1Nc1nc(-c2nccc(N)n2)cs1
5.0
Cc1ccc(NC(=O)c2ccc(CN3CCN(C)CC3)cc2)cc1Nc1nc(-c2nccc(N)n2)cs1
3.1
Cc1ccc(-c2ccc(CCN3CCN(C)CC3)cc2)cc1Nc1nc(-c2nccc(N)n2)cs1
4.4
